- Test system: DU-145 prostate
- experiment summary: NCI tumour cell line growth inhibition, 48 h
Give measured TGI for each item. Keep answers brief.

## Task Which TGI value is on record for C[C@]12CCC(=O)C=C1CC[C@@H]1[C@@H]2CC[C@]2(C)C(=O)/C(=C\c3ccccc3)C[C@@H]12 ?
## Result > 100 µM

## Task Find the recorded TGI belonging to CC1OC2OC3C(OCC(O)C3O)OC(=O)[C@]34CCC(C)(C)CC3C3=CCC5[C@@]6(C)C[C@H](O)[C@H](OC7OC(CO)C(O)C(O)C7OC7OC(COC(=O)CC(C)(O)CC(=O)OC1C(O)C2O)C(O)C(O)C7O)[C@@](C)(CO)C6CC[C@@]5(C)[C@]3(C)CC4 (stereo partly specified) and report it.
## Result 3.02 µM

## Task What does the data say about its TGI? Entry: CC1CC(=O)NC2CC1C2(C)C (stereo unspecified)
## Result > 100 µM

## Task Can you look up the measured TGI of Clc1cccc(Cl)c1C1SCc2nc3ncccc3n21 (stereo unspecified) for me?
## Result > 100 µM

## Task Form field: reported TGI of OCCCNC(=S)Nc1ccc(-c2nc3ccccc3s2)cc1
## Result > 100 µM

## Task For the molecule shown here, Cc1cc(Cl)ccc1Nc1nc(C(F)(F)F)ccc1C(=O)N/N=C/c1ccc(F)cc1 , give the reported TGI.
## Result 13.8 µM

## Task I'd like to know its TGI. The molecule in question is O=C(NO)c1ccc(OCc2ccccc2)cc1
## Result 68.9 µM

## Task What TGI value was documented for this molecule, CCN(CC)CCCC(C)Nc1ccnc2cc(Cl)c(SCc3ccccc3)cc12 (stereo unspecified) ?
## Result 13.5 µM

## Task Recorded TGI of C(#Cc1ccccc1C#Cc1ccccn1)c1ccc(OCCCCCCOc2ccc(C#Cc3ccccc3C#Cc3ccccn3)cc2)cc1 , please.
## Result 13 µM

## Task Requested field: TGI. Item: COc1cc2c3c(n(CCCN4CCOCC4)c(=O)c2cc1OC)-c1cc2c(cc1C3=O)OCO2
## Result > 21.6 µM

## Task Need TGI, item CCOC(=O)c1cc(C2(OC)CCN(Cc3ccccc3)C2=O)c(-c2cc(C)no2)[nH]1 (stereo unspecified)
## Result > 100 µM

## Task Entry CC1(c2nc3cc(Cl)c(Cl)cc3[nH]2)CCC(C(=O)O)C(C)(C)O1 (stereo unspecified) has what TGI?
## Result > 100 µM

## Task Reported TGI for CCOC(=O)c1nc2ccc(C(F)(F)F)cc2nc1Nc1ccc(OC)c(OC)c1 : what is it?
## Result > 100 µM

## Task Reported TGI, molecule CNC(=S)N/N=C(/C)CCC/C(C)=N/NC(=S)NC : ____
## Result > 100 µM

## Task Quick one: TGI for CC[C@@H]1C[C@@H](O)[C@@H]2[C@H](O)[C@H](O)CN2C1 ?
## Result > 100 µM

## Task Field request: TGI | item: CC(C)[C@H](NC(=O)[C@@H](O)[C@H](N)Cc1ccccc1)C(=O)N[C@@H](Cc1ccccc1)C(=O)O
## Result > 100 µM

## Task May I ask what TGI has been recorded for O=C(O)C1CCCN1Cc1ccc2c(c1)OCO2 (stereo unspecified) ?
## Result > 100 µM

## Task For the molecule shown here, CCCNNC(=O)c1ccc(CNC(=O)/C=C/c2ccccc2)cc1 , give the reported TGI.
## Result > 100 µM

## Task TGI for CC(C)C(/C=C/c1ccc(Cl)cc1)=N\NC(=S)NN ?
## Result > 100 µM

## Task So what's the measured TGI for this one? Cc1cc(NC(=O)C(=O)Cc2nc3ccccc3s2)ccc1Cl
## Result > 100 µM

## Task What TGI value was documented for this molecule, Nc1nn(C(=O)Nc2ccc(Cc3ccccc3)cc2)c2ccccc12 ?
## Result 28.3 µM
